Give pIC50 for every item shown.
target-or-system: Ras-related C3 botulinum toxin substrate 1 (Mus musculus)
test-details: Inhibition of Rac1 activation in mouse NIH/3T3 cells lysates pre-incubated for 1 hr before addition of Rac activator stimulation by immunoblot analysis based pull-down assay relative to control
# pIC50: negative log10 of molar concentration; output just the value

Exercise: Read off the recorded pIC50 for COc1ccc(NS(=O)(=O)c2ccc(NC(=O)CCSc3ccc(C)cc3)cc2)c(OC)c1
Key: 7.52

Exercise: Read off the recorded pIC50 for COc1cccc(NS(=O)(=O)c2ccc(N)cc2)c1
Key: 9.00

Exercise: Read off the recorded pIC50 for COc1ccccc1NS(=O)(=O)c1ccc([N+](=O)[O-])cc1
Key: 9.00

Exercise: Read off the recorded pIC50 for COc1ccc(OC)c(NS(=O)(=O)c2ccc(NC(=O)CCSc3ccc(C)cc3)cc2)c1
Key: 9.00

Exercise: Read off the recorded pIC50 for COc1ccccc1NS(=O)(=O)c1ccc(NC(=O)CSc2ccc(C)cc2)cc1
Key: 9.00

Exercise: Read off the recorded pIC50 for COc1ccc(OC)c(NS(=O)(=O)c2ccc(NC(=O)CCOc3ccc(C)cc3)cc2)c1
Key: 9.00

Exercise: Read off the recorded pIC50 for COc1ccccc1NS(=O)(=O)c1ccc(N)cc1
Key: 9.00

Exercise: Read off the recorded pIC50 for C=CC(=O)Nc1ccc(S(=O)(=O)Nc2cc(OC)ccc2OC)cc1
Key: 10.00

Exercise: Read off the recorded pIC50 for COc1ccccc1NS(=O)(=O)c1ccc(NC(=O)CCSc2ccc(C)cc2)cc1
Key: 9.00
